Values were extracted from patent US20220315554A1.

Biological target: Human recombinant FAP (Homo sapiens, UniProt Q12884)
Sequence (Q12884 whole entry): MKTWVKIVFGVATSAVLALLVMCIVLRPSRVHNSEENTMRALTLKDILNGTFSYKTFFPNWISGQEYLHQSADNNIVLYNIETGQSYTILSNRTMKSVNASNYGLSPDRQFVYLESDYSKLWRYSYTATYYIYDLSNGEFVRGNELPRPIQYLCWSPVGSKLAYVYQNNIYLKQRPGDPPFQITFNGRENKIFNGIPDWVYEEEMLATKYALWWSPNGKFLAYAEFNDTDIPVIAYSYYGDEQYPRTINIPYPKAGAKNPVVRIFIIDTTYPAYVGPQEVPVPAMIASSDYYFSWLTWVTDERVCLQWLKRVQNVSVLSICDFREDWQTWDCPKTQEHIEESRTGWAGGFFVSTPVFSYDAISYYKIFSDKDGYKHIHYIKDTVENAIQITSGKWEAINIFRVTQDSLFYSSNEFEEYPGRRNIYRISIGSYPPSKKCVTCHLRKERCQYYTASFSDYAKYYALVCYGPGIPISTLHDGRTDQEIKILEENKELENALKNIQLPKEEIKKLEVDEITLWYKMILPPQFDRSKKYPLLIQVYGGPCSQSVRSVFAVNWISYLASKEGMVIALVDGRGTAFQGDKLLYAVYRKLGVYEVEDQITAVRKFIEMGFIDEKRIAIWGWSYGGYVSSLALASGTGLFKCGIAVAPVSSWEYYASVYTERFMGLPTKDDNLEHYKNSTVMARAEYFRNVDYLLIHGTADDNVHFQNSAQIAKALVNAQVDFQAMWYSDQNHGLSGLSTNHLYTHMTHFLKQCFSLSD
Assay: FRET-based FAP protease activity assay
Type: biochemical
Parameters: purchased R&D systems 3715-SE
Details: pIC50 Category (Activity), FRET substrate, 37° C.
Numbered stars: 1 amine (or outer) side, 2 acyl side, 3 side chain; on linkers, the order of the positions; unused ones are H or OH. Bridge positions count the residues as written; N and C are the ends. Square brackets hold non-standard residues; d marks the D form. Peptide text beside a SMILES is read from it. * marks the point of attachment. TBMB(SCH2CH2NH-DOTA) = O=C(O)CN1CCN(CC(=O)O)CCN(CC(=O)NCCSCc2cc(C[*:1])cc(C[*:2])c2)CCN(CC(=O)O)CC1; X3 = NC(=O)[C@H](CCCCNC(=O)CN1CCN(CC(=O)O)CCN(CC(=O)O)CCN(CC(=O)O)CC1)NC(=O)CCC(=O)NCCCOCCOCCOCCCN*; X12 = NCCNCC(CNCCN)C(=O)NCCCOCCOCCOCCCN*; mXylylene = c1cc(C[*:1])cc(C[*:2])c1; X25 = NCCSCc1cc(C[*:1])cc(C[*:2])c1; Suc = O=C(CCC(=O)[*:2])[*:1]; Hexanoyl = CCCCCC(=O)*; Sar = CNCC(=O)O
Measure: IC50

Problem: Give me measured IC50, please, for this compound: "CCCCCC(=O)N[C@H]1CSCc2cc(CSCCNC(=O)CCCC(=O)Nc3ccc(C[C@H](CN(CCN(CC(=O)O)CC(=O)O)CC(=O)O)N(CC(=O)O)CC(=O)O)cc3)cc(c2)CSC[C@@H](C(=O)O)NC(=O)[C@H](Cc2ccccc2)NC(=O)[C@H](CCC(N)=O)NC(=O)[C@H]([C@@H](C)O)NC(=O)[C@@H]2CCCN2C(=O)[C@@H]2CCCN2C1=O"
Result: 100 to 794 nM

Problem: # return recorded IC50 for entry C[C@@H](O)[C@@H]1NC(=O)[C@@H]2CCCN2C(=O)[C@@H]2CCCN2C(=O)[C@@H](NC(=O)[C@H](CCC(=O)O)NC(=O)CCC(=O)NCCCOCCOCCOCCCNC(=O)C(CNCCN)CNCCN)CSCc2cccc(c2)CSC[C@@H](C(=O)O)NC(=O)[C@H](Cc2ccccc2)NC(=O)[C@H](CCC(=O)O)NC1=O [3BP-4233] ({X12-Suc}-ECPPTEFC-OH; linker 2-8 via mXylylene)
Result: > 1000 nM

Problem: Please report the measured IC50 for CCCCCC(=O)N[C@H]1CSCc2cc(CSCCNC(=O)CN3CCN(CC(=O)O)CCN(CC(=O)O)CCN(CC(=O)O)CC3)cc(c2)CSC[C@@H](C(N)=O)NC(=O)[C@H](Cc2ccccc2)NC(=O)[C@H](CCC(N)=O)NC(=O)[C@H]([C@@H](C)O)NC(=O)[C@@H]2CCCN2C(=O)CN(C)C1=O [3BP-3744] (Hexanoyl-C[Sar]PTQFC-NH2; linker 1-7 via TBMB(SCH2CH2NH-DOTA))
Result: < 10 nM

Problem: Fill in reported IC50 for this entry: CCCCCC(=O)N[C@H]1CSCc2cc(CSCCNC(=O)CN3CCN(CC(=O)O)CCN(CC(=O)O)CCN(CC(=O)O)CC3)cc(c2)CSC[C@@H](C(=O)N[C@@H](CC(=O)O)C(=O)NCCCOCCOCCOCCCNC(=O)CCC(=O)N[C@@H](CCCCNC(=O)CN2CCN(CC(=O)O)CCN(CC(=O)O)CCN(CC(=O)O)CC2)C(N)=O)NC(=O)[C@H](Cc2ccccc2)NC(=O)[C@H](CCC(N)=O)NC(=O)[C@H]([C@@H](C)O)NC(=O)[C@@H]2CCCN2C(=O)[C@@H]2CCCN2C1=O [3BP-4391] (Hexanoyl-CPPTQFCD-X3; linker 1-7 via TBMB(SCH2CH2NH-DOTA))
Result: < 10 nM

Problem: Output measured IC50 for this item: CCCCCC(=O)N[C@H]1CSCc2cc(CSCCN)cc(c2)CSC[C@@H](C(=O)N[C@@H](CC(=O)O)C(N)=O)NC(=O)[C@H](Cc2ccccc2)NC(=O)[C@H](CCC(N)=O)NC(=O)[C@H]([C@@H](C)O)NC(=O)[C@@H]2CCCN2C(=O)[C@@H]2CCCN2C1=O [3BP-3981] (Hexanoyl-CPPTQFCD-NH2; linker 1-7 via X25)
Result: < 10 nM
